molecular target: T1, recombinant SARS-CoV-2 Spike RBD domain, BQ.1.1 variant (SARS-CoV-2); test: competition ELISA, blocking of RBD binding to ACE2 ectodomain
T1 construct: also called RBD BQ.1.1. variant
VALUE_TYPE: Blocking %

// field: Blocking %; key: SPK002M C2 antibody (antibody, human IgG1, kappa, V domains shown) VH: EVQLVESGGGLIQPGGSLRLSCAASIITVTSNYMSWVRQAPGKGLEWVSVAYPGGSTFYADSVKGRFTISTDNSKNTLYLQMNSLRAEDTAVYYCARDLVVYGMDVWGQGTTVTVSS VL: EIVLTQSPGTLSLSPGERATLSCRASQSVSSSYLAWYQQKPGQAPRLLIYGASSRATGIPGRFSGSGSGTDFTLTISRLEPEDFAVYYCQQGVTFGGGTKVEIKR ; value = 95%
